- System: HOP-92 NSCLC
- Assay Text: NCI tumour cell line growth inhibition, 48 h
Measured Metric: TGI

Worked examples, 3 compounds total:
CCN1CCN(c2cc(C)nc(NCc3cc(Nc4ccnc5cc(Cl)ccc45)ccc3F)n2)CC1 ... 19.4 µM
COc1cc(C(=C2SCCS2)c2nccc3cc(OC)c(OC)cc23)c([N+](=O)[O-])cc1OC ... > 100 µM
COC(=O)c1cccc2c1Oc1ccccc1S2 ... > 100 µM

Proceed to the following item.
QUERY: Recall the recorded TGI for S=C1NC2=C(COC/C2=C\c2ccccc2Cl)C(c2ccccc2Cl)N1 (centres undefined) with HOP-92 NSCLC and state it.
RESULT: > 100 µM
